- experimental-system: T1, human PACAP27 (human, C-terminal leucine is amidated; 125I-labelled in Example 10)
- T1 peptide: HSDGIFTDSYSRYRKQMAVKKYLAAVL
- assay-explanation: cell-based or functional assay
metric-name: IC50, 0.1 nM PACAP27-induced PAC1-R mediated cAMP increase

>  <binder>
anti-PACAP antibody Ab19 (antibody, human IgG1, kappa, N297A, V domains shown, full-length rabbit/human chimeric antibody) VH: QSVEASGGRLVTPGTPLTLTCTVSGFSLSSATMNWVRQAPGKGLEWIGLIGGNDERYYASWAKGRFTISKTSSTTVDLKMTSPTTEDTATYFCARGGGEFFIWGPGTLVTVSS VL: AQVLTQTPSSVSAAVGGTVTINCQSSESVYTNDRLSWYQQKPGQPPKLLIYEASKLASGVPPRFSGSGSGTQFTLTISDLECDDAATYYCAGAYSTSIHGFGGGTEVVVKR

>  <result>
87.4 pM

$$$$
>  <binder>
anti-PACAP antibody Ab15 (antibody, human IgG1, kappa, N297A, V domains shown, full-length rabbit/human chimeric antibody) VH: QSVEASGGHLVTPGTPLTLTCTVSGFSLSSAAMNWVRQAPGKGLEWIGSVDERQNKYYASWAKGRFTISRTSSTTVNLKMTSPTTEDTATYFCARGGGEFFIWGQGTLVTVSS VL: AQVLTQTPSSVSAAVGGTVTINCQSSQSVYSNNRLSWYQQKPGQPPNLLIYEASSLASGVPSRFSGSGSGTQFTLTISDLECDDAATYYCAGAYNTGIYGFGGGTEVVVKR

>  <result>
156 pM

$$$$
